Each entry below carries its recorded % Inhibition of human Factor 7 mRNA levels.
System: human Factor 7 mRNA
Assay: Antisense inhibition of human Factor 7 mRNA in HepB3 cells, lipofectin, 50 nM, real-time RT-PCR
Assay type: cell-based
Settings: HepB3 cells; gapmers (5-10-5, 3-14-3, 2-13-5 MOE) targeted to nucleobases 4868 to 4899 of SEQ ID NO: 1
In the oligonucleotide strings, read from the 5' end, every base follows the letter of its sugar. An asterisk marks phosphorothioate; unmarked linkages are phosphodiester. Other units and linkages are bracketed, terminal groups are in braces. A string of capitals states the bases alone. e = 2'-O-(2-methoxyethyl) (MOE); [5mC] = 5-methylcytosine; d = 2'-deoxy (DNA)
quantity measured: % Inhibition of human Factor 7 mRNA levels (%)

- substance: "422220 (antisense e[5mC]*e[5mC]*e[5mC]*dG*dA*dG*dT*dT*d[5mC]*dT*dG*d[5mC]*dA*dG*dG*dA*dG*e[5mC]*eG*eG) [compound 422220]"
  unit abbrev: "%"
  result: 59
- substance: "422218 (antisense e[5mC]*eG*eA*dG*dT*dT*d[5mC]*dT*dG*d[5mC]*dA*dG*dG*dA*dG*d[5mC]*dG*eG*e[5mC]*e[5mC]) [compound 422218]"
  unit abbrev: "%"
  result: 70
- substance: "422146 (antisense eA*eG*e[5mC]*e[5mC]*e[5mC]*dG*dA*dG*dT*dT*d[5mC]*dT*dG*d[5mC]*dA*eG*eG*eA*eG*e[5mC]) [compound 422146]"
  unit abbrev: "%"
  result: 58
- substance: "422223 (antisense eG*eA*eG*d[5mC]*d[5mC]*d[5mC]*dG*dA*dG*dT*dT*d[5mC]*dT*dG*d[5mC]*dA*dG*eG*eA*eG) [compound 422223]"
  unit abbrev: "%"
  result: 48

====

Each entry below carries its recorded % Inhibition of human Factor 7 mRNA levels.
System: human Factor 7 mRNA
Assay: Antisense inhibition of human Factor 7 mRNA in HepB3 cells, lipofectin, 50 nM, real-time RT-PCR
Format: cell-based
Details: HepB3 cells, lipofectin, 50 nM antisense oligonucleotide, approximately 24 hours, primer probe set RTS 2927, relative to untreated control
In the oligonucleotide strings, read from the 5' end, every base follows the letter of its sugar. An asterisk marks phosphorothioate; unmarked linkages are phosphodiester. Other units and linkages are bracketed, terminal groups are in braces. A string of capitals states the bases alone. e = 2'-O-(2-methoxyethyl) (MOE); [5mC] = 5-methylcytosine; d = 2'-deoxy (DNA)
quantity measured: % Inhibition of human Factor 7 mRNA levels (%)

- substance: "407935 (antisense eA*eT*eG*e[5mC]*eA*dT*dG*dG*dT*dG*dA*dT*dG*d[5mC]*dT*eT*e[5mC]*eT*eG*eA) [compound 407935]"
  result: 72
- substance: "416533 (antisense eG*e[5mC]*eA*eT*eT*d[5mC]*dT*dG*dG*dA*d[5mC]*d[5mC]*d[5mC]*dA*dG*eA*eT*eG*eA*e[5mC]) [compound 416533]"
  result: 41
- substance: "416513 (antisense e[5mC]*eT*eG*eA*eT*dG*dT*dG*dA*dA*dA*dA*d[5mC]*d[5mC]*dG*eG*e[5mC]*eA*eT*eG) [compound 416513]"
  result: 37
- substance: "416470 (antisense eG*e[5mC]*eT*eT*eT*dT*dG*d[5mC]*dA*dG*d[5mC]*d[5mC]*dA*d[5mC]*dT*e[5mC]*eG*eA*eT*eG) [compound 416470]"
  result: 39
- substance: "416523 (antisense eT*e[5mC]*eT*e[5mC]*eG*dA*dG*dG*dG*d[5mC]*dT*dG*dA*dG*dA*eA*eT*eT*eG*e[5mC]) [compound 416523]"
  result: 18
- substance: "416562 (antisense eA*eA*eA*eG*e[5mC]*dA*dG*dA*dG*d[5mC]*d[5mC]*dA*dG*d[5mC]*dT*e[5mC]*eT*eG*eA*e[5mC]) [compound 416562]"
  result: 12
- substance: "416463 (antisense eT*eG*e[5mC]*eT*eG*d[5mC]*dA*dG*dG*d[5mC]*dA*dG*dT*d[5mC]*d[5mC]*eT*eG*eG*eG*eT) [compound 416463]"
  result: 39
- substance: "416526 (antisense eT*eG*eT*e[5mC]*e[5mC]*dA*d[5mC]*dA*dT*dG*dA*d[5mC]*d[5mC]*d[5mC]*d[5mC]*eA*e[5mC]*eA*eG*eG) [compound 416526]"
  result: 19
- substance: "416507 (antisense eG*eG*eT*eT*eA*d[5mC]*dT*dG*dA*dG*d[5mC]*dG*d[5mC]*dG*dG*eA*eA*eG*eA*eA) [compound 416507]"
  result: 73
- substance: "416435 (antisense e[5mC]*e[5mC]*e[5mC]*eA*eT*d[5mC]*dA*d[5mC]*dT*dG*dT*dA*dA*dG*dA*eA*eA*eT*e[5mC]*e[5mC]) [compound 416435]"
  result: 3
- substance: "416424 (antisense eG*eA*eG*eA*e[5mC]*d[5mC]*dA*dT*dG*dA*dT*dG*dA*dA*dA*eT*e[5mC]*eT*e[5mC]*eT) [compound 416424]"
  result: 27
